Test system: Plasmodium berghei
TEST_DETAILS: Screen against P. berghei liver stage (PbLuc), transformed with Luciferase, at 10uM
Type: functional, HepG2
ASSAY_SETUP: tested at 10 uM
Among all 69,000 compounds or so, about 8,600 (12%) showed an effect of 50% or more. This excerpt belongs to a sample that is enriched for strong results.
METRIC_NAME: INHIBITION

Indicate its recorded INHIBITION; the compound in question is O=C(c1cnn2c1OCCC2)N1CCC2(CC1)OCCO2 -14.2%

Indicate its recorded INHIBITION; the compound in question is COc1cc2c(cc1OC)C(=O)C(Sc1nnc(C)o1)C2 (configuration not stated) 27.5%

Indicate its recorded INHIBITION; the compound in question is COc1cccc(CCC2CCCN(C(=O)c3n[nH]c4c3CCC4)C2)c1 (configuration not stated) 81.8%

Indicate its recorded INHIBITION; the compound in question is COCCNc1nc(N2CCOCC2)nc2nccnc12 -2.93%

Indicate its recorded INHIBITION; the compound in question is CCOCC(=O)N1CCC(Cc2nnc(SC)n2C)CC1 48%

Indicate its recorded INHIBITION; the compound in question is CC1CCCCN1C(=O)COc1nc(C(C)(C)C)no1 (configuration not stated) -29.2%

Indicate its recorded INHIBITION; the compound in question is CC(C)c1cc(NC(CO)CO)n2nccc2n1 33.2%

Indicate its recorded INHIBITION; the compound in question is O=C1CC2(CCN(CC3CC3)CC2)CN1Cc1cc(F)cc(F)c1 69.3%

Indicate its recorded INHIBITION; the compound in question is Cc1ccc(CC(=O)N(C)CC2(O)CCCN(c3ccccn3)C2)s1 (configuration not stated) -2.11%

Indicate its recorded INHIBITION; the compound in question is COc1cccc(C(=O)N2CCCC(C(=O)CCc3ccccc3)C2)c1 (configuration not stated) 65%

Indicate its recorded INHIBITION; the compound in question is CN1CC(=O)N(c2cccc(F)c2)CC12CCN(S(C)(=O)=O)C2 (configuration not stated) -5.12%

Indicate its recorded INHIBITION; the compound in question is Cc1ccc(NC2CCN(C(=O)COc3cccnc3)CC2)nn1 44.6%

Indicate its recorded INHIBITION; the compound in question is O=C(c1ccccc1-n1cccn1)N1CCC(Nc2cccnn2)CC1 -92.9%

Indicate its recorded INHIBITION; the compound in question is Cc1nccn1C1CCCN(C(=O)c2cc(Cl)c3c(c2)OCO3)C1 (configuration not stated) -15.5%

Indicate its recorded INHIBITION; the compound in question is CCOCCC(=O)NCC(C)c1ccsc1 (configuration not stated) 32%

Indicate its recorded INHIBITION; the compound in question is CN1C[C@@H](C(=O)NC2CCCC2)[C@@]2(COc3ccc(F)cc3C2=O)C1 23.85%

Indicate its recorded INHIBITION; the compound in question is CN(C)C(=O)c1cnn2c1OCCC2 60.6%

Indicate its recorded INHIBITION; the compound in question is CCN(CC)S(=O)(=O)N1CC[C@H](c2ccccc2)[C@H]2NCCCC[C@H]21 47.2%

Indicate its recorded INHIBITION; the compound in question is COc1cccc(CCC2CCCN(C(C)=O)C2)c1 (configuration not stated) -10.9%

Indicate its recorded INHIBITION; the compound in question is CSC1(CNC(=O)NC(C)c2ccc(F)cc2)CCOCC1 (configuration not stated) 16.5%

Indicate its recorded INHIBITION; the compound in question is CC(C)(C)c1nc(CN2CCCC(Cn3cncn3)C2)cs1 (configuration not stated) 61.7%

Indicate its recorded INHIBITION; the compound in question is Clc1snnc1CN1CCCC1Cn1cncn1 (configuration not stated) -11.4%

Indicate its recorded INHIBITION; the compound in question is Cc1cccc2cc(CN3CCCN4CCC[C@H]4C3)c(=O)[nH]c12 34.9%

Indicate its recorded INHIBITION; the compound in question is COc1cccc(CCC2CCCN(C(=O)C3=NN(C)C(=O)CC3)C2)c1 (configuration not stated) 3.47%

Indicate its recorded INHIBITION; the compound in question is Clc1cc(CN2CCCCC2Cn2cncn2)c2ncccc2c1 (configuration not stated) -9.83%

Indicate its recorded INHIBITION; the compound in question is CSC1(CNC(=O)NC(C)c2ccc(F)c(F)c2)CCOCC1 (configuration not stated) 65.3%

Indicate its recorded INHIBITION; the compound in question is Clc1cc(CN2CCCN3CCCC3C2)c2ncccc2c1 (configuration not stated) 55%
